system: up-regulation of ICAM-1 (CD54) by IFNγ in A549 lung epithelial cells; test: A549 Epithelial Line Stimulated with IFNγ (ICAM-1 surface expression, FACS); type: cell-based, human; conditions: Homo sapiens, A549, A549 cells stimulated with IFNγ, ICAM-1 expression by FACS; read-out: IC50, Example 43
test-readout: IC50 (µM)

COc1ccc(Nc2nc(Nc3cccc(S(N)(=O)=O)c3)ncc2F)cn1    23.4

A = COc1ccc(Nc2nc(Nc3cccc(S(N)(=O)=O)c3)ncc2Br)cc1Cl
B = N#CCc1c[nH]c2ccc(Nc3nc(Nc4cccc(S(N)(=O)=O)c4)ncc3F)cc12
Compare A and B by numeric IC50 and name the larger one. Output the label that corresponds to your choice.
B
(B: 30.3 µM, A: 1.7 µM)

----------
tested on: up-regulation of ICAM-1 (CD54) by IFNγ in A549 lung epithelial cells; assay: A549 Epithelial Line Stimulated with IFNγ (ICAM-1 surface expression, FACS); type: cell-based, human; conditions: A549 epithelial line stimulated with IFNγ; ICAM-1 expression by FACS; read-out: IC50, Example 43
Structures can show the parent of a compound that is named as a salt.
test-readout: IC50 (µM)

CCN(CC)CCNS(=O)(=O)c1ccc(Nc2ncc(F)c(Nc3ccc(OCc4cc(C)on4)cc3)n2)cc1 [Compound I-246]    8.88
N#CCc1ccc(Nc2nc(Nc3cccc(S(N)(=O)=O)c3)ncc2F)cc1 [III-4]    8.37
CCC(=O)NS(=O)(=O)c1cccc(Nc2ncc(F)c(Nc3ccc(OCc4nc(C)no4)cc3)n2)c1 [Compound I-273, Sodium Salt]    12.9
Cc1cc(Nc2nc(Nc3ccc(S(N)(=O)=O)cc3)ncc2F)ccc1OC(C)C(N)=O (racemic) [Compound I-119]    9.67
Cc1noc(COc2cccc(Nc3nc(Nc4ccc(C)c(S(N)(=O)=O)c4)ncc3F)c2)n1 [Compound I-254]    8.96
CNS(=O)(=O)c1cc(Nc2ncc(F)c(Nc3ccc(Cc4ccncc4)cc3)n2)ccc1C [III-75]    10.1
Cc1cc(COc2ccc(Nc3nc(Nc4cc(C)c(F)c(S(N)(=O)=O)c4)ncc3F)cc2F)no1 [Compound I-224]    11.3

a = Cc1nnc(COc2ccc(Nc3nc(Nc4ccc(F)c(S(N)(=O)=O)c4)ncc3F)cc2)o1 [Compound I-278]
b = Cc1cc(COc2ccc(Nc3nc(Nc4ccc(C)c(S(N)(=O)=O)c4)ncc3F)cc2)no1 [Compound I-219]
Smaller IC50 value, a vs b ? Output the label that corresponds to your choice.
b
(b: 7.16 µM, a: 11 µM)

----------
System: Primary human T-cells
Assay: Primary Human T-Cell Proliferation Assay Stimulated with IL-2 (CellTiter-Glo)
Type: cell-based
Conditions: Homo sapiens, T-cell, primary human T-cells stimulated with IL-2, proliferation; read-out: IC50, Example 42
Procedure: The activity of the active compounds of the invention may further be characterized by assaying the effect of the 2,4-substituted pyrimidinediamine compounds described herein on the proliferative response of primary human T-cells. […] The primary human T-cells are incubated with the 2,4-substituted pyrimidinediamine compounds in the presence of IL-2 for 72 hours and at the assay endpoint intracellular ATP concentrations are measured to assess cell viability. […]
test-readout: IC50 (nM)
Express the result in nM but write the number alone.

Completed entries (count: 5):
C#CCOc1ccc(Nc2nc(Nc3ccc(Cl)c(S(N)(=O)=O)c3)ncc2F)cc1 [VI-55]    625
Cc1ccc(Nc2ncc(F)c(Nc3cccc(-c4cnco4)c3)n2)cc1S(N)(=O)=O [IV-2]    362
CNS(=O)(=O)c1cccc(Nc2nc(Nc3ccc(C)c(S(N)(=O)=O)c3)ncc2F)c1 [IV-12]    1220
NS(=O)(=O)c1cccc(Nc2ncc(F)c(Nc3cccc4ncccc34)n2)c1 [VII-68]    1300
CCNC(=O)NCc1ccc(Nc2nc(Nc3cccc(S(N)(=O)=O)c3)ncc2F)cc1 [III-120]    554

Fill in the recorded IC50 for this molecule, with Primary human T-cells as test system: CC(C)(C)c1ccc(Nc2nc(Nc3ccc(Cl)c(S(N)(=O)=O)c3)ncc2F)cc1 [VI-43]
6140

Fill in the recorded IC50 for this molecule, with Primary human T-cells as test system: Cc1ccc(Nc2ncc(F)c(Nc3ccc4c(c3)NC(=O)CS4)n2)cc1S(N)(=O)=O [VII-44]
546

Fill in the recorded IC50 for this molecule, with Primary human T-cells as test system: CN(C)S(=O)(=O)c1cccc(Nc2nc(Nc3cccc(S(N)(=O)=O)c3)ncc2F)c1 [IV-9]
1000
